Test system: MHH-CALL-2
Test: selective drug sensitivity score (sDSS, relative to normal bone marrow) (sDSS (score)); higher = more potent and effective on the cell line relative to normal bone marrow cells;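 further: ALL cell lines in 384-well plates, five doses spanning 10,000-fold, each plate scaled between vehicle and 100 µmol/L benzalkonium chloride controls, sDSS an adapted area-under-curve metric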
Settings: 72 h
# label = T if selective drug sensitivity score >= 4 else F

Example cases with answers are listed next.
molecule: COc1cc2c(N3CCN(C(=O)Nc4ccc(OC(C)C)cc4)CC3)ncnc2cc1OCCCN1CCCCC1 [Tandutinib] (top concentration 1000 nM)
category: F
--
molecule: Cc1ccc(F)c(NC(=O)Nc2ccc(-c3cccc4[nH]nc(N)c34)cc2)c1 [Linifanib] (top concentration 1000 nM)
category: F
--
molecule: CC[C@@H](C(=O)[C@@H](C)[C@@H](O)[C@H](C)[C@@H]1O[C@@H]([C@@H](CC)C(=O)O)CC[C@@H]1C)[C@H]1O[C@]2(C=C[C@@H](O)[C@]3(CC[C@@](C)([C@H]4CC[C@](O)(CC)[C@H](C)O4)O3)O2)[C@H](C)C[C@@H]1C [Salinomycin] (top concentration 50000 nM)
category: T

Query string: Exam item: decide whether the reported selective drug sensitivity score for Nc1nc(N)c2nc(-c3cccc(O)c3)c(-c3cccc(O)c3)nc2n1 [TG100-115] (top concentration 10000 nM) is at least 4.
Result string: T

Query string: Evaluate Oc1ccc2c(c1)CC[C@H](c1ccccc1)[C@@H]2c1ccc(OCCN2CCCC2)cc1 [Lasofoxifene] (top concentration 1000 nM) : selective drug sensitivity score at minimum 4?
Result string: F

###

Test system: COG-LL-402h
Experiment: selective drug sensitivity score (sDSS, relative to normal bone marrow) (sDSS (score)); higher = more potent and effective on the cell line relative to normal bone marrow cells
Settings: 72 h
Reported selective drug sensitivity score is given for each of the following molecules.
Please give the numeric answer without any surrounding text.

Some molecules with recorded selective drug sensitivity score:
molecule: CCOCc1nc2c(N)nc3ccccc3c2n1CC(C)(C)O [Resiquimod] (top concentration 10000 nM)
quantity-measured: selective drug sensitivity score
assay-value: -4.32

molecule: COc1ccccc1S(=O)(=O)Nc1ccc2c(c1)CN(C)C(=O)N2 [PFI-1] (top concentration 30000 nM)
quantity-measured: selective drug sensitivity score
assay-value: 3.1

molecule: CCCN(CCC)C(=O)C1=Cc2ccc(-c3ccc(C(=O)N4CCCC4)cc3)cc2N=C(N)C1 [Motolimod] (top concentration 10000 nM)
quantity-measured: selective drug sensitivity score
assay-value: -4.48

Now for a further molecule.
Query string: Hello, I am looking for reported selective drug sensitivity score with COG-LL-402h for NCC(=O)Nc1ccc(-n2nc(C(F)(F)F)cc2-c2ccc3c(ccc4ccccc43)c2)cc1 (top concentration 25000 nM) . Could you help?
Result string: -0.2

###

Tested on: LC4-1
Assay: selective drug sensitivity score (sDSS, relative to normal bone marrow) (sDSS (score)); higher = more potent and effective on the cell line relative to normal bone marrow cells
Settings: 72 h
Label scheme for selective drug sensitivity score: lower than 3 is condition not met, 3 and above is condition met.

Here's what some known entries look like.
compound: CC(C)c1cc(C(=O)N2Cc3ccc(CN4CCN(C)CC4)cc3C2)c(O)cc1O [Onalespib] (top concentration 2500 nM)
category: condition met
//
compound: CC(C)c1cc(-c2n[nH]c(=O)n2-c2ccc3c(ccn3C)c2)c(O)cc1O [Ganetespib] (top concentration 1000 nM)
category: condition not met
//
compound: CCOC(=O)C1=CCCC[C@H]1S(=O)(=O)Nc1ccc(F)cc1Cl [Resatorvid] (top concentration 10000 nM)
category: condition not met

Query string: selective drug sensitivity score >= 3 for N#CC(c1ccnc(OCc2ccc(CN3CCOCC3)cc2)n1)c1nc2ccccc2s1 (stereo unspecified) [Bentamapimod] (top concentration 10000 nM) ?
Result string: condition not met

Query string: Check if selective drug sensitivity score >= 3 (inclusive). Item: CC(C)Oc1ccc(C(=O)N[C@H](CNC(=O)CN(C)C)Cc2ccc(-c3cn4cccc([C@H](C)O)c4n3)cc2)cc1Cl (top concentration 10000 nM)
Result string: condition met

Query string: Is selective drug sensitivity score at least 3? Consider Cc1cc(F)c(C(=O)Nc2cccc(-c3nncn3C(C)C)n2)cc1-n1cnc(C2CC2)c1 [Selonsertib] (top concentration 1000 nM)
Result string: condition not met

Query string: Entry CCN(CC)Cc1ccc2cc(COC(=O)Nc3ccc(C(=O)NO)cc3)ccc2c1 [Givinostat] (top concentration 1000 nM) : is its selective drug sensitivity score no less than 3?
Result string: condition met

Query string: Could you please find out whether CC1(COc2ccc3c(c2)ncn3-c2ccc3cccc(N4CCC(N)CC4)c3n2)COC1 [Crenolanib] (top concentration 10000 nM) has selective drug sensitivity score that meets 3 or exceeds it?
Result string: condition not met

Query string: Confirm if selective drug sensitivity score reported for the compound C[C@]12CC[C@H](O)CC1=CC[C@@H]1[C@@H]2CC[C@]2(C)C(c3cccnc3)=CC[C@@H]12 [Abiraterone] (top concentration 5000 nM) is 3 or above.
Result string: condition not met

Query string: Could you verify whether the entry CC#CC(=O)N1CCC[C@H]1c1nc(-c2ccc(C(=O)Nc3ccccn3)cc2)c2c(N)nccn12 [Acalabrutinib] (top concentration 1000 nM) shows selective drug sensitivity score of no less than 3?
Result string: condition not met

Query string: Has CCc1cc2c(cc1N1CCC(N3CCOCC3)CC1)C(C)(C)c1[nH]c3cc(C#N)ccc3c1C2=O [Alectinib] (top concentration 1000 nM) a recorded selective drug sensitivity score greater than or equal to 3?
Result string: condition met

Query string: selective drug sensitivity score >= 3 for Nc1nc(N)c2nc(-c3cccc(O)c3)c(-c3cccc(O)c3)nc2n1 [TG100-115] (top concentration 10000 nM) ?
Result string: condition not met

Query string: Hi, just wondering whether Nc1ncnc2c1nc(Cl)n2[C@@H]1O[C@H](CO)[C@@H](O)[C@H]1O [8-chloro-adenosine] (top concentration 50000 nM) shows selective drug sensitivity score of 3 or higher.
Result string: condition not met

Query string: Is selective drug sensitivity score for C/C(=C\c1csc(C)n1)[C@@H]1C[C@@H]2O[C@]2(C)CCC[C@H](C)[C@H](O)[C@@H](C)C(=O)C(C)(C)[C@@H](O)CC(=O)N1 [Ixabepilone] (top concentration 1000 nM) at or above 3?
Result string: condition met

Query string: Could you please find out whether Cc1c(Cn2c(C)nc3c(C(=O)O)cc(N4CCOCC4)cc32)cccc1C(F)(F)F (top concentration 10000 nM) has selective drug sensitivity score that meets 3 or exceeds it?
Result string: condition not met

Query string: Decide: selective drug sensitivity score of CNCc1ccc(-c2[nH]c3cc(F)cc4c3c2CCNC4=O)cc1 [Rucaparib] (top concentration 10000 nM) >= 3?
Result string: condition not met

###

Tested on: COG-LL-394h
Assay: selective drug sensitivity score (sDSS, relative to normal bone marrow) (sDSS (score)); higher = more potent and effective on the cell line relative to normal bone marrow cells
Conditions: 72 h
Each item that follows carries a reported selective drug sensitivity score.
Answer with a bare number; do not write a unit.

Field: example entries. Status: answers known.
molecule: O=C1CN2Cc3c(ccc(Cl)c3Cl)N=C2N1 [Anagrelide] (top concentration 10000 nM)
selective drug sensitivity score: 0
//
molecule: O=c1[nH]cc(F)c(=O)[nH]1 [Fluorouracil] (top concentration 10000 nM)
selective drug sensitivity score: -0.34
//
molecule: CC(C)Cn1cnc2c(N)nc3ccccc3c21 [Imiquimod] (top concentration 2500 nM)
selective drug sensitivity score: 0.8

Query string: Quick check: selective drug sensitivity score of Nc1nc(Cl)nc2c1ncn2[C@@H]1O[C@H](CO)[C@@H](O)[C@@H]1F [Clofarabine] (top concentration 10000 nM) ?
Result string: -27.4

Query string: Record request: selective drug sensitivity score value, item CC(C)c1c(C(=O)Nc2ccccc2)c(-c2ccccc2)c(-c2ccc(F)cc2)n1CC[C@@H](O)C[C@@H](O)CC(=O)O [Atorvastatin] (top concentration 10000 nM)
Result string: -1.2

Query string: Quick check: selective drug sensitivity score of CN1CCN(c2nc(C3=C(c4c[nH]c5ccccc45)C(=O)NC3=O)c3ccccc3n2)CC1 [Sotrastaurin] (top concentration 10000 nM) ?
Result string: 0.2

Query string: Reported selective drug sensitivity score for O=C(Nc1cc(Oc2cc(F)c(NC(=O)C3(C(=O)Nc4ccc(F)cc4)CC3)cc2F)ccn1)C1CC1 [Altiratinib] (top concentration 10000 nM) : what is it?
Result string: 1.84

Query string: Can you look up the measured selective drug sensitivity score of COc1cc2ncnc(Nc3ccc(F)c(Cl)c3)c2cc1NC(=O)/C=C/CN1CCCCC1 [Dacomitinib] (top concentration 1000 nM) for me?
Result string: -1.64

Query string: Which measured selective drug sensitivity score value corresponds to Nc1ccn([C@@H]2O[C@H](CO)[C@@H](O)[C@@H]2O)c(=O)n1 [Cytarabine] (top concentration 10000 nM) ?
Result string: -10

###

Entries and their selective drug sensitivity score
Tested on: P30-OHKUBO
Test: selective drug sensitivity score (sDSS, relative to normal bone marrow) (sDSS (score)); higher = more potent and effective on the cell line relative to normal bone marrow cells
Conditions: 72 h

molecule: CNC(=O)c1ccc(-c2cnc3ncc(Cc4ccc5ncccc5c4)n3n2)cc1F [Capmatinib] (top concentration 1000 nM)
selective drug sensitivity score: -0.06

Read the next record carefully.
Query string: Consider the molecule CC1(C)CC[C@]2(NC(=O)C(C)(F)F)CC[C@]3(C)[C@H](C(=O)C=C4[C@@]5(C)C=C(C#N)C(=O)C(C)(C)[C@@H]5CC[C@]43C)[C@@H]2C1 [Omaveloxolone] (top concentration 10000 nM) and give its measured selective drug sensitivity score.
Result string: 0.68
